Listed molecules paired with reported T/C
- Test system: L1210 leukemia ip in BDF1 mice, survival T/C
- Experiment summary: NCI In Vivo Anticancer Drug Screen. Data for tumor model L1210 Leukemia (intraperitoneal) in B6D2F1 (BDF1) mice
- Condition summary: endpoint: mean survival time; dose: 100.0 mg/kg/injection; schedule: Q04DX002 (ip); vehicle: Klucel (hydroxypropylcellulose) (HPC); higher = longer survival
Inconclusive results and toxic doses are left out.
Quantity measured: T/C

1. CC(C)OC(=O)Nc1ccc(Br)cc1 :: 88 % of control
2. CN(C)N=Nc1cc2c(cc1O)CC[C@@H]1[C@@H]2CC[C@]2(C)C(=O)CC[C@@H]12 :: 90 % of control
3. COc1cc(NC(=O)Nc2ccc(F)c(Cl)c2)c(OC)cc1Cl :: 100 % of control
4. Cc1cnc(N(C)CC(=O)O)nc1-c1ccccc1O :: 96 % of control
5. Cc1cc(C)c(NC(=O)c2cccc([N+](=O)[O-])c2C(=O)O)cc1C :: 105 % of control
6. COc1ccccc1/C=C(\C#N)c1cccc2ccccc12 :: 107 % of control
7. c1ccc(CC2NC2c2ccccc2)cc1 (stereo not drawn) :: 92 % of control
8. Cc1cc(=O)oc2c(OC(=O)N(CCCl)CCCl)c(OC(=O)N(CCCl)CCCl)ccc12 :: 97 % of control
9. COc1ccc(COC(=O)Nc2cc(OC)ccc2OC)cc1 :: 101 % of control
10. O=C(COc1cccc(Cl)c1)NCc1ccc(NC(=O)c2cccc(S(=O)(=O)F)c2)cc1 :: 100 % of control
11. Cc1ccc(C(=O)Cc2ccccc2)cc1 :: 94 % of control
12. CCCS(=O)(=O)N1CCCCC1 :: 102 % of control
13. O=C(O)c1c(Cl)n(-c2ccccc2)c2ccccc12 :: 104 % of control
14. C1=C(c2ccccc2)N(C2CCCCCC2)C(c2ccccc2)=CN1Cc1ccccc1 :: 96 % of control
15. N#CCCN(C(=O)Nc1ccc(Cl)c(Cl)c1)C1CCCCC1 :: 107 % of control
16. COc1ccc(OC)c(NC(=S)NNC(=S)NNc2ccccc2)c1 :: 101 % of control
17. CCCCCCCCC1NC1CCCCCCCCO (stereo not drawn) :: 103 % of control
18. CN(CCO)C(=O)C1C(c2ccccc2)C1c1ccccc1 (stereo not drawn) :: 100 % of control

###

- System: L1210 leukemia ip in BDF1 mice, survival T/C
- Experiment summary: NCI In Vivo Anticancer Drug Screen. Data for tumor model L1210 Leukemia (intraperitoneal) in B6D2F1 (BDF1) mice
- Condition summary: endpoint: mean survival time; dose: 20.0 mg/kg/injection; schedule: Q01DX001 (ip); vehicle: saline; higher = longer survival
Inconclusive results and toxic doses are left out.
Catalogue of T/C values
Quantity measured: T/C

1) N#CC(C#N)=Cc1ccco1 :: 100 % of control
2) Oc1ccc2ccccc2c1N=Nc1cc[c]([Hg][Cl])cc1 :: 96 % of control
3) CO[C@H]1C=CC2=CCN3CCC4=C(CC(=O)OC4)[C@]23C1 :: 96 % of control
4) c1ccc2nc(NN=C3CCCCC3)ccc2c1 :: 97 % of control

###

- Test system: L1210 leukemia ip in BDF1 mice, survival T/C
- Experiment summary: NCI In Vivo Anticancer Drug Screen. Data for tumor model L1210 Leukemia (intraperitoneal) in B6D2F1 (BDF1) mice
- Condition summary: endpoint: mean survival time; dose: 200.0 mg/kg/injection; schedule: Q01DX009 (ip); vehicle: Klucel (hydroxypropylcellulose) (HPC); higher = longer survival
- Protocol: The antitumor activity of compounds was measured in mice bearing transplantable tumors. Survival or tumor size were measured and the results are expressed as the measurement made in the treated group (T) divided by the measurement made in the vehicle treated control group (C). The tumor model used in this assay is L1210 Leukemia (intraperitoneal) in B6D2F1 (BDF1) mice
Toxic doses and inconclusive results are not listed.
Reported T/C values are given for each entry in this list.
Quantity measured: T/C

1) Cc1cccc(NS(=O)(=O)c2ccccc2)c1C :: 91 % of control
2) CC1=NN(c2ccccc2)C(=O)/C1=C\c1ccccc1 :: 95 % of control
3) CN(C(=O)Nc1cccc(C(F)(F)F)c1)c1ccccc1 :: 96 % of control
4) CSc1ccc(C(O)Cc2ccc([N+](=O)[O-])cc2)cc1 (configuration not stated) :: 97 % of control
5) Cc1ccc(Cl)cc1NC(=O)c1ccc(Cl)cc1Cl :: 91 % of control
6) Cc1ccnc(SCC(=O)O)n1 :: 95 % of control
7) CN(CCc1ccccc1)/N=N/c1nc[nH]c1C(N)=O :: 103 % of control

###

Entries and their T/C values follow.
- Test system: L1210 leukemia ip in BDF1 mice, survival T/C
- Experiment summary: NCI In Vivo Anticancer Drug Screen. Data for tumor model L1210 Leukemia (intraperitoneal) in B6D2F1 (BDF1) mice
- Condition summary: endpoint: mean survival time; dose: 50.0 mg/kg/injection; schedule: Q01DX009 (ip); vehicle: saline with Tween-80; higher = longer survival
Inconclusive results and toxic doses are left out.
Quantity measured: T/C

1) CCN(CCS)Cc1ccccc1 :: 97 % of control
2) CCN(CC)CCNc1ccc(N=Nc2ccc(SC)cc2)c2ccccc12 :: 94 % of control
3) NCC(OCCCc1ccccc1)C(Cl)(Cl)Cl (stereo not drawn) :: 113 % of control
4) CCOCc1nc2nc(Cl)c(Cl)nc2[nH]1 :: 106 % of control
5) Cc1ccc(N=Nc2ccc(C)cc2NC(=O)/C=C/c2ccccc2)cc1 :: 96 % of control
6) CNC(Cc1ccccc1)c1ccccc1 (stereo not drawn) :: 101 % of control
7) O=C(O)CCC(=O)c1cccc([N+](=O)[O-])c1 :: 103 % of control
8) CC(O)(C(=O)O)c1ccc(Cl)c(Cl)c1 (stereo not drawn) :: 89 % of control
9) CC(C)(O)c1cccc(F)c1 :: 90 % of control
10) CCCCN(CCCC)CN(CCCC)CCCC :: 100 % of control
11) O=C(N/N=C\c1ccc(Cl)cc1Cl)c1ccc(F)cc1 :: 94 % of control
12) CC(C)(C)SCC#CCSC(C)(C)C :: 100 % of control
13) NC(=O)c1n[nH]nc1N1CC[N+](CCCl)=N1 :: 111 % of control

###

- Tested on: L1210 leukemia ip in BDF1 mice, survival T/C
- Experiment summary: NCI In Vivo Anticancer Drug Screen. Data for tumor model L1210 Leukemia (intraperitoneal) in B6D2F1 (BDF1) mice
- Condition summary: endpoint: mean survival time; dose: 200.0 mg/kg/injection; schedule: Q04DX003 (ip); vehicle: gum acacia; higher = longer survival
Toxic doses and inconclusive results are not listed.
Quantity measured: T/C

1. C(=N\N=C\c1c[nH]c2ccccc12)/c1c[nH]c2ccccc12 :: 89 % of control
2. CC(=O)Nc1ccc2ccccc2c1-c1c(N)ccc2ccccc12 :: 92 % of control
3. Cc1ccc(-c2nc3ccccc3c(=O)o2)cc1 :: 88 % of control
4. CC(I)CNc1ccc(C(=O)O)c(O)c1 (stereo unspecified) :: 89 % of control
5. Cc1cc(Cl)ccc1NC(=O)Nc1ccccc1 :: 89 % of control
6. O=C(c1ccccc1)c1ccc(Oc2ccccc2)cc1 :: 97 % of control

###

- Tested on: L1210 leukemia ip in BDF1 mice, survival T/C
- Experiment summary: NCI In Vivo Anticancer Drug Screen. Data for tumor model L1210 Leukemia (intraperitoneal) in B6D2F1 (BDF1) mice
- Condition summary: endpoint: mean survival time; dose: 100.0 mg/kg/injection; schedule: Q01DX009 (ip); vehicle: Klucel (hydroxypropylcellulose) (HPC); higher = longer survival
- Procedure: The antitumor activity of compounds was measured in mice bearing transplantable tumors. Survival or tumor size were measured and the results are expressed as the measurement made in the treated group (T) divided by the measurement made in the vehicle treated control group (C). The tumor model used in this assay is L1210 Leukemia (intraperitoneal) in B6D2F1 (BDF1) mice
Toxic doses and inconclusive results are not listed.
Property: T/C; scope: individual molecules
Quantity measured: T/C

1. O=C(c1ccccc1)C(Nc1nc2nc(-c3ccccc3)c(-c3ccccc3)n2[nH]1)c1ccccc1 (centres undefined) :: 93 % of control
2. C1=CC=CN(c2ccccc2)C=C1 :: 108 % of control
3. CC(=O)Nc1ccc(Cl)nc1 :: 98 % of control
4. Cc1cc(CS)c(CS)cc1C :: 100 % of control
5. CN(C)CN1C(=O)c2ccccc2C1=O :: 103 % of control
6. COc1ccc(I)c([N+](=O)[O-])c1 :: 96 % of control
7. O=C(O)c1ccc(OC(F)(F)C(F)Cl)cc1 (centres undefined) :: 98 % of control
8. CCN(CC)C(=S)Nc1ccc([N+](=O)[O-])cc1 :: 104 % of control
9. COc1ccc(C(=O)CCCCl)cc1 :: 102 % of control
10. O=C(CCCCc1ccc([N+](=O)[O-])cc1)Nc1ccc(S(=O)(=O)F)cc1 :: 100 % of control
11. CCC(C)c1cc([N+](=O)[O-])cc([N+](=O)[O-])c1SC(=O)N(C)C (centres undefined) :: 94 % of control
12. Cc1cc(C)c(-n2c(C)nc3ccccc3c2=O)c([N+](=O)[O-])c1 :: 109 % of control
13. O=C(NC(=S)Nc1ccc(Cl)c(Cl)c1)c1cccc([N+](=O)[O-])c1 :: 95 % of control
14. CC1(C)C/C(=C\c2cccc(Br)c2)C(=O)c2ccccc21 :: 104 % of control
15. C/C=C/C(C#N)Nc1ccccc1C(N)=O (centres undefined) :: 95 % of control
16. COc1ccccc1N1CCN(CCCC(=O)c2ccc(F)cc2)CC1 :: 122 % of control
17. C(=C\c1cnc2ccccc2n1)/c1ccc2c(c1)OCO2 :: 89 % of control
18. O=C(O)C(Br)C(Br)C(=O)Nc1cccc(C(F)(F)F)c1 (centres undefined) :: 103 % of control
19. CSc1ccc(NC(=O)Nc2cccc(C(C)=O)c2)cc1 :: 97 % of control
20. Cc1nc(Cl)cc(=O)[nH]1 :: 90 % of control
21. Cc1cc([N+](=O)[O-])c(NCCOC(=O)c2ccccc2Cl)c([N+](=O)[O-])c1 :: 102 % of control
22. COc1cc(C=Nc2cccc(C(F)(F)F)c2)ccc1O :: 95 % of control
23. CN(C)c1ccc(/C=N/NC(=S)Nc2ccccc2)cc1 :: 109 % of control
24. CCOC(=O)c1ccc(NC(=O)Nc2cccc(Cl)c2)cc1 :: 93 % of control
25. O=c1[nH]c2cc3[nH]c(=O)c(=O)c3cc2c1=O :: 102 % of control
26. CC(=O)Oc1c(C(C)(C)C)cc(C)cc1C(C)(C)C :: 100 % of control
27. CC12OC1(C)C1(C)C3(C)OC3(C)C21C (centres undefined) :: 96 % of control
28. Oc1cc(Br)ccc1C=Nc1ccc(N2CCCCC2)cc1 :: 92 % of control
29. O=C(ONC1CCC(CC2CCCCC2)CC1)c1ccccc1 (centres undefined) :: 97 % of control
30. CC(c1ccccc1)C(C#N)c1ccccc1 (centres undefined) :: 97 % of control
31. Cc1cc(Cl)ccc1NC(=O)c1ccccc1C(=O)O :: 96 % of control
32. CCC1CN2C(=N1)c1cc(Cl)ccc1-c1ccc(Cl)cc12 (centres undefined) :: 95 % of control
33. CCN(CC)C(=O)Nc1ccccc1F :: 104 % of control
34. O=C(O)C(CSC(c1ccccc1)(c1ccccc1)c1ccccc1)NSc1ccccc1[N+](=O)[O-] (centres undefined) :: 114 % of control
35. O=C1OC(=O)c2c1ccc(Br)c2Br :: 102 % of control
36. CCOC(=O)NNC(=O)c1ccccc1N(C)C :: 94 % of control
37. O=C(O)CSCCc1ccccc1 :: 105 % of control
38. CC(CC#N)OC(=O)c1cccc([N+](=O)[O-])c1 (centres undefined) :: 91 % of control
39. CCOC1=C(C#N)CC2(CC1)c1ccccc1-c1ccccc12 :: 96 % of control
40. CCOC(=O)c1ccc(NC(=O)Nc2cc(C)ccn2)cc1 :: 96 % of control
41. CC(=O)n1c(O)c(N=NC(=O)c2ccccc2[N+](=O)[O-])c2ccccc21 :: 86 % of control
42. CCOC(=O)c1c(NC(=O)CCC(=O)Nc2sc(C)c(C)c2C(=O)OCC)sc(C)c1C :: 90 % of control
43. Cc1ccc(C)c(NC(=O)N(CCO)C2CCCCC2)c1 :: 98 % of control
44. CN(C)N=Nc1cc2c(cc1O)CC[C@@H]1[C@@H]2CC[C@]2(C)C(=O)CC[C@@H]12 :: 110 % of control
45. CCOc1cc(/C=N/NC(=O)c2ccccc2NC(=O)c2ccccc2Cl)ccc1O :: 90 % of control
46. O=[N+]([O-])c1ccc(Oc2ccc(S(=O)(=O)F)cc2)cc1 :: 106 % of control
47. O=C(Nc1ccc(Cl)c(Cl)c1)Oc1ccc2ccccc2c1 :: 90 % of control
48. CCCCCCCCCC(O)CCC (centres undefined) :: 103 % of control
49. O=C(O)/C=C/C(=O)Nc1ccc([N+](=O)[O-])c(C(F)(F)F)c1 :: 107 % of control
